Just for reference, ChEMBL document CHEMBL1135468 is where these values come from.

Data export: pKi values recorded with Vasopressin V1a receptor (Homo sapiens).
Sequence (P37288 whole entry): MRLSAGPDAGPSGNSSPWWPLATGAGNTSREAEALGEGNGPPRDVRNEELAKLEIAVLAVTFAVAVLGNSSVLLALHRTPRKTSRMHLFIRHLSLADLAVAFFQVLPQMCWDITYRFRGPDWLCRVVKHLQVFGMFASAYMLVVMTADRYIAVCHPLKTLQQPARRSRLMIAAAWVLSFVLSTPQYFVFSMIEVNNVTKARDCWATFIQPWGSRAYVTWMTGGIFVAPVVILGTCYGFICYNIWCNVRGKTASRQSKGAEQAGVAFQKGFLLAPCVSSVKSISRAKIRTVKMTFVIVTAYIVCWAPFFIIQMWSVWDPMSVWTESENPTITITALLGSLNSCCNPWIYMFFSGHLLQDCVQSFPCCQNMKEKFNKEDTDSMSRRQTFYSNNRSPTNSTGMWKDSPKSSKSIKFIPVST
*1 amine or outer side, *2 acyl side, *3 side chain or, on linkers, in order; H or OH if unused. Where a SMILES comes first, the peptide text is derived from it. Bridges are numbered along the chain shown (N, C = ends). [ ]: non-standard residue; d: D form. The star is where a group is joined. 6FAM = O=C1OC2(c3ccc(O)cc3Oc3cc(O)ccc32)c2cc(C(=O)*)ccc21; X1 = O=C([C@@H](O)CS[*:2])[*:1]; Orn = NCCC[C@H](N)C(=O)O; Mpa = O=C(O)CCS
// pKi: -log10(molar conc.)

compound="CC[C@H](C)[C@@H]1NC(=O)[C@H](Cc2ccc(O)cc2)NC(=O)[C@@H](O)CSSC[C@@H](C(=O)N2CCC[C@H]2C(=O)N[C@@H](CCCNC(=O)c2ccc3c(c2)C2(OC3=O)c3ccc(O)cc3Oc3cc(O)ccc32)C(=O)NCC(N)=O)NC(=O)[C@H](CC(N)=O)NC(=O)[C@H]([C@@H](C)O)NC1=O (YITNCP[Orn](6FAM)G-NH2; linker N-5 via X1)" test_value=7.93

Problem: Jot down pKi (Vasopressin V1a receptor (Homo sapiens)) of CC[C@H](C)[C@@H]1NC(=O)[C@H](Cc2ccc(O)cc2)NC(=O)CCSSC[C@@H](C(=O)N2CCC[C@H]2C(=O)N[C@@H](CCCNC(=O)c2ccc3c(c2)C2(OC3=O)c3ccc(O)cc3Oc3cc(O)ccc32)C(=O)NCC(N)=O)NC(=O)[C@H](CC(N)=O)NC(=O)[C@H]([C@@H](C)O)NC1=O ([Mpa]YITNCP[Orn](6FAM)G-NH2; disulfide 1-6) .
Solution: 7.52

Problem: # lookup: Vasopressin V1a receptor (Homo sapiens) pKi, key = CC[C@H](C)[C@@H]1NC(=O)[C@H](Cc2ccc(O)cc2)NC(=O)CCSSC[C@@H](C(=O)N2CCC[C@H]2C(=O)N[C@@H](CCCCNC(=O)c2ccc3c(c2)C2(OC3=O)c3ccc(O)cc3Oc3cc(O)ccc32)C(=O)NCC(N)=O)NC(=O)[C@H](CC(N)=O)NC(=O)[C@H]([C@@H](C)O)NC1=O ([Mpa]YITNCPK(6FAM)G-NH2; disulfide 1-6)
Solution: 7.59

Problem: Tell me its pKi on Vasopressin V1a receptor (Homo sapiens): CC[C@H](C)[C@@H]1NC(=O)[C@H](Cc2ccc(O)cc2)NC(=O)[C@@H](O)CSSC[C@@H](C(=O)N2CCC[C@H]2C(=O)N[C@@H](CCCCNC(=O)c2ccc3c(c2)C2(OC3=O)c3ccc(O)cc3Oc3cc(O)ccc32)C(=O)NCC(N)=O)NC(=O)[C@H](CC(N)=O)NC(=O)[C@H]([C@@H](C)O)NC1=O (YITNCPK(6FAM)G-NH2; linker N-5 via X1)
Solution: 7.76
